Listed here: items and their measured Papp.
METHOD: Permeability of the compound in human Caco2 cells
Type: ADME, cell-based
CONDITION CONTEXT: Caco-2, read-out: permeability
Give your result in ×10⁻⁶ cm/s as a bare value.

INSERT INTO measurements (smiles_notation, parameter, value) VALUES
  ('COCCOc1ccccc1N1CCN(C(=O)[C@]2(Oc3ccc(C(F)(F)F)cc3)CCCN(C(=O)c3cnccc3C(F)(F)F)C2)CC1', 'Papp', 20.3),
  ('COc1ccc(C2=N[C@@H](c3ccc(Cl)cc3)[C@@H](c3ccc(Cl)cc3)N2C(=O)N2CCNC(=O)C2)c(OC(C)C)c1', 'Papp', 12.6);

For the next question, use this compound.
Entry COc1ccccc1N1CCN(C(=O)[C@]2(Oc3ccc(C(F)(F)F)cc3)CCCN(C(=O)c3cnccc3C(F)(F)F)C2)CC1 has what Papp?
15.8

* * *

TEST TARGET: E3 ubiquitin-protein ligase Mdm2 (Homo sapiens, UniProt Q00987)
Sequence (Q00987 whole entry): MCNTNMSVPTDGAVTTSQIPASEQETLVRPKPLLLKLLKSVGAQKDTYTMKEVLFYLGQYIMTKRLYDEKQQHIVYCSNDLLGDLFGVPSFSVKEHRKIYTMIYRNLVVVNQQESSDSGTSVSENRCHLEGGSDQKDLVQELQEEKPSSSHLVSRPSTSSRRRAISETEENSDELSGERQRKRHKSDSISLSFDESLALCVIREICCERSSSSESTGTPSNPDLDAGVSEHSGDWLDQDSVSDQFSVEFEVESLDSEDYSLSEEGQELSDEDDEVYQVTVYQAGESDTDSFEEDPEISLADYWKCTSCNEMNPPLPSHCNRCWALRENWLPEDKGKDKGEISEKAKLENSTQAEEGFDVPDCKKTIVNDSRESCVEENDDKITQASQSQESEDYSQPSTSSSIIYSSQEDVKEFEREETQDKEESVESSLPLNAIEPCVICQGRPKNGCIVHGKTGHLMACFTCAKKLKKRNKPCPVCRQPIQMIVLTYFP
pIC50: −log10 of the molar value.
PARAMETER: pIC50

I'm curious: which pIC50 was measured for COCCOc1ccccc1N1CCN(C(=O)[C@]2(Oc3ccc(C(F)(F)F)cc3)CC[C@H](c3ccccc3)N(C(=O)c3cnccc3C(F)(F)F)C2)CC1 tested on E3 ubiquitin-protein ligase Mdm2 (Homo sapiens, UniProt Q00987)?
< 5.00

* * *

Listed here: items and their measured AUC.
METHOD: AUC in mouse at 20 mg/kg, iv and 20 mg/kg, po
Format: ADME, organism-based
CONDITION CONTEXT: plasma
Give your result in µM·h as a bare value.

Entry COCCOc1ccccc1N1CCN(C(=O)[C@]2(Oc3ccc(C(F)(F)F)cc3)CCCN(C(=O)c3cnccc3C(F)(F)F)C2)CC1 has what AUC?
1.1

Entry COc1ccccc1N1CCN(C(=O)[C@]2(Oc3ccc(C(F)(F)F)cc3)CCCN(C(=O)c3cnccc3C(F)(F)F)C2)CC1 has what AUC?
1.9

Value source: ChEMBL document CHEMBL3232918
